# TEST_PROTOCOL: Toxicity in ip dosed BDF1 mouse allografted with mouse L1210 cells administered qd for 5 days
# Format: organism-based
# PARTICULARS: BDF1, mouse, in vivo
MTD at 120 h less than 100 mg/kg/day is yes (1); MTD at 120 h greater than or equal to 100 mg/kg/day is no (0).

As a guide, the following entries are already answered.
STRUCTURE_SMILES_STRING	QUALITATIVE_LABEL
Cl.O.O=S(=O)(CCCCCNc1ccnc2ccccc12)Nc1ccc(Nc2c3ccccc3nc3ccccc23)cc1	no (0)
Br.O.O=S(=O)(CCCCCCNc1ccnc2ccccc12)Nc1ccc(Nc2c3ccccc3nc3ccccc23)cc1	yes (1)
c1ccc(Nc2c3ccccc3nc3ccccc23)cc1	no (0)

hey, is MTD at 120 h for Cl.O.O=S(=O)(CCNc1c2ccccc2nc2ccccc12)Nc1ccc(Nc2c3ccccc3nc3ccccc23)cc1 lower than 100 mg/kg/day or not?
yes (1)

hey, is MTD at 120 h for Cl.O.O=S(=O)(CCCNc1c2ccccc2nc2ccccc12)Nc1ccc(Nc2c3ccccc3nc3ccccc23)cc1 lower than 100 mg/kg/day or not?
no (0)
